# system: Adenosine receptor A3 (Homo sapiens, UniProt P0DMS8)
# Sequence (P0DMS8 whole entry): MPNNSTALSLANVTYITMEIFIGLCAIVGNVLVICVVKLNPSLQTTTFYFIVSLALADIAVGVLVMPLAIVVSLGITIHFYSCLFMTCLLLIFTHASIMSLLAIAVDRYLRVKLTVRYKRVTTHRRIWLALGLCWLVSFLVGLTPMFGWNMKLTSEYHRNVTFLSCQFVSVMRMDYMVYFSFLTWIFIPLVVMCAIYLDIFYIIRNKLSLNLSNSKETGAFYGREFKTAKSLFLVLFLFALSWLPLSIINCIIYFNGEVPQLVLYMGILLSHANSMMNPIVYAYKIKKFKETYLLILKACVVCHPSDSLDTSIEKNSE
# Assay type: cell-based, CHO
// reported pKi for each item listed
Reminder that pKi is minus the log10 of a molar concentration.

[
  {
    "record smiles": "CCNC(=O)[C@H]1O[C@@H](n2cnc3c(NCCCCCCNc4ccc([N+](=O)[O-])c5nonc45)ncnc32)[C@H](O)[C@@H]1O",
    "value": 7.62
  },
  {
    "record smiles": "CCNC(=O)[C@H]1O[C@@H](n2cnc3c(NCCCCCCCCNc4ccc([N+](=O)[O-])c5nonc45)ncnc32)[C@H](O)[C@@H]1O",
    "value": 8.13
  },
  {
    "record smiles": "CCNC(=O)[C@H]1O[C@@H](n2cnc3c(NCCCCCCCCCCNc4ccc([N+](=O)[O-])c5nonc45)ncnc32)[C@H](O)[C@@H]1O",
    "value": 7.55
  }
]

Problem: Could you tell me which pKi is on file for CCNC(=O)[C@H]1O[C@@H](n2cnc3c(NCCNc4ccc([N+](=O)[O-])c5nonc45)ncnc32)[C@H](O)[C@@H]1O ?
Solution: 7.25

Problem: Could you tell me which pKi is on file for CCNC(=O)[C@H]1O[C@@H](n2cnc3c(NCCCCNc4ccc([N+](=O)[O-])c5nonc45)ncnc32)[C@H](O)[C@@H]1O ?
Solution: 6.41

----------
# system: Adenosine receptor A1 (Homo sapiens)
# protocol description: Antagonist activity at human adenosine A1 receptor expressed in CHO cells coexpressing cAMP response element assessed as inhibition of agonist-induced response by SPAP reporter gene assay in presence of forskolin
observable: Kd (µM)
The response must be a number in µM with no trailing unit.

[
  {
    "record smiles": "CCNC(=O)[C@H]1O[C@@H](n2cnc3c(NCCCNC(=O)COc4ccc(/C=C/C5=[N+]6C(=Cc7ccc(-c8cccs8)n7[B-]6(F)F)C=C5)cc4)ncnc32)[C@H](O)[C@@H]1O",
    "unit descriptor": "µM",
    "value": 0.0162
  },
  {
    "record smiles": "CCNC(=O)[C@H]1O[C@@H](n2cnc3c(NCCOCCOCCNC(=O)COc4ccc(/C=C/C5=[N+]6C(=Cc7ccc(-c8cccs8)n7[B-]6(F)F)C=C5)cc4)ncnc32)[C@H](O)[C@@H]1O",
    "unit descriptor": "µM",
    "value": 0.0178
  },
  {
    "record smiles": "CCNC(=O)[C@H]1O[C@@H](n2cnc3c(NCCCCCCCCCCCNC(=O)COc4ccc(/C=C/C5=[N+]6C(=Cc7ccc(-c8cccs8)n7[B-]6(F)F)C=C5)cc4)ncnc32)[C@H](O)[C@@H]1O",
    "unit descriptor": "µM",
    "value": 0.0129
  },
  {
    "record smiles": "CCNC(=O)[C@H]1O[C@@H](n2cnc3c(NCCCCNC(=O)COc4ccc(/C=C/C5=[N+]6C(=Cc7ccc(-c8cccs8)n7[B-]6(F)F)C=C5)cc4)ncnc32)[C@H](O)[C@@H]1O",
    "unit descriptor": "µM",
    "value": 0.0162
  },
  {
    "record smiles": "CCNC(=O)[C@H]1O[C@@H](n2cnc3c(NCCNC(=O)COc4ccc(/C=C/C5=[N+]6C(=Cc7ccc(-c8cccs8)n7[B-]6(F)F)C=C5)cc4)ncnc32)[C@H](O)[C@@H]1O",
    "unit descriptor": "µM",
    "value": 0.0145
  }
]

Okay, now this molecule:
Problem: Could you tell me which Kd is on file for CCNC(=O)[C@H]1O[C@@H](n2cnc3c(NCCCCCCCCNC(=O)COc4ccc(/C=C/C5=[N+]6C(=Cc7ccc(-c8cccs8)n7[B-]6(F)F)C=C5)cc4)ncnc32)[C@H](O)[C@@H]1O ?
Solution: 0.0141

----------
# system: Adenosine receptor A3 (Homo sapiens, UniProt P0DMS8)
# protocol description: Binding affinity to human adenosine A3 receptor expressed in CHO cells by flow cytometric analysis
# Assay type: cell-based
observable: Kd (nM)
The response must be a number in nM with no trailing unit.

Problem: Could you tell me which Kd is on file for N=c1ccc2c(-c3ccc(C(=O)NCCCCCCn4cc(CCCC(=O)Nc5nc6ccc(Cl)cc6c6nc(-c7ccco7)nn56)nn4)cc3C(=O)O)c3ccc(N)c(S(=O)(=O)O)c3oc-2c1S(=O)(=O)O ?
Solution: 5.15

----------
// reported pKi for each item listed
# system: Adenosine receptor A2a (Homo sapiens)
# Sequence (P29274 whole entry): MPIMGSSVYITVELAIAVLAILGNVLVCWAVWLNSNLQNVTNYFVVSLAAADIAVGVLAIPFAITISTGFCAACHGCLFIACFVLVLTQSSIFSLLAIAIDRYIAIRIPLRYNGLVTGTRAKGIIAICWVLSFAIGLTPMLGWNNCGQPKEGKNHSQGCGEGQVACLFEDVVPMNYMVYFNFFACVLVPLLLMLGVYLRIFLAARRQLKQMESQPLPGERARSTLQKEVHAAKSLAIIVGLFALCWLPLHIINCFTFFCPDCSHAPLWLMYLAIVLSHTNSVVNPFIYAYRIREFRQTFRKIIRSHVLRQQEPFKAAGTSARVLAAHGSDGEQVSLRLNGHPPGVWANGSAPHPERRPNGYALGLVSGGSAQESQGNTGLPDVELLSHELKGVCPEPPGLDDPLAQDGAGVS
# protocol description: Displacement of [3H]CGS21680 from human adenosine A2A receptor expressed in HEK293 cells after 60 mins by […] analysis
# Format: cell-based
Reminder that pKi is minus the log10 of a molar concentration.

[
  {
    "compound": "Cn1cc2c(nc(NCCCNC(=S)Nc3ccc(C4c5ccc(O)cc5OC5=CC(=O)C=CC54)c(C(=O)O)c3)n3nc(-c4ccco4)nc23)n1 (stereo not given)",
    "system": "Adenosine receptor A2a (Homo sapiens)",
    "pKi": 5.60
  }
]

Problem: Could you tell me which pKi is on file for Cn1cc2c(nc(NCCCCNC(=S)Nc3ccc(C4c5ccc(O)cc5OC5=CC(=O)C=CC54)c(C(=O)O)c3)n3nc(-c4ccco4)nc23)n1 (stereo not given) ?
Solution: 6.33

Problem: Could you tell me which pKi is on file for Cn1cc2c(nc(NCCCCCNC(=S)Nc3ccc(C4c5ccc(O)cc5OC5=CC(=O)C=CC54)c(C(=O)O)c3)n3nc(-c4ccco4)nc23)n1 (stereo not given) ?
Solution: 5.75

Problem: Could you tell me which pKi is on file for Cn1cc2c(nc(NNC(=S)Nc3ccc(C4c5ccc(O)cc5OC5=CC(=O)C=CC54)c(C(=O)O)c3)n3nc(-c4ccco4)nc23)n1 (stereo not given) ?
Solution: 6.03

Problem: Could you tell me which pKi is on file for N=c1ccc2c(-c3ccc(C(=O)NCCCCCCn4cc(CCCC(=O)Nc5nc6ccc(Cl)cc6c6nc(-c7ccco7)nn56)nn4)cc3C(=O)O)c3ccc(N)c(S(=O)(=O)O)c3oc-2c1S(=O)(=O)O ?
Solution: 7.13

----------
# system: Adenosine receptor A3 (Homo sapiens, UniProt P0DMS8)
# protocol description: Binding affinity to human adenosine A3 receptor expressed in CHO cells after 90 mins
# Assay type: cell-based
observable: pKd
Reminder that pKd is minus the log10 of a molar concentration.

Problem: Could you tell me which pKd is on file for N=c1ccc2c(-c3ccc(C(=O)NCCCCCCn4cc(CCCC(=O)Nc5nc6ccc(Cl)cc6c6nc(-c7ccco7)nn56)nn4)cc3C(=O)O)c3ccc(N)c(S(=O)(=O)O)c3oc-2c1S(=O)(=O)O ?
Solution: 8.18

----------
# system: Adenosine receptor A1 (Homo sapiens)
# Sequence (P30542 whole entry): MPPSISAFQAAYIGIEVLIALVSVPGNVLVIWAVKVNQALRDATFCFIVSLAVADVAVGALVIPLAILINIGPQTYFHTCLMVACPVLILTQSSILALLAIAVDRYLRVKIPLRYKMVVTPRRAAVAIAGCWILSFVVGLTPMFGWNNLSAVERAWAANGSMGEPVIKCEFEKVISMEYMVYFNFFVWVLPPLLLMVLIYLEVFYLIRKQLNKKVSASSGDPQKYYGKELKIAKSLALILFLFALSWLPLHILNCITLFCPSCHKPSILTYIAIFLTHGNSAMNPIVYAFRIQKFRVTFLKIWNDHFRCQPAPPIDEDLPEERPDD
# protocol description: Displacement of [3H]DPCPX from adenosine A1 receptor in human cortical membranes
# Format: cell membranes
observable: pKi
Reminder that pKi is minus the log10 of a molar concentration.

[
  {
    "record smiles": "CCNC(=O)[C@H]1O[C@@H](n2cnc3c(NCCCCCCCCCCNc4ccc([N+](=O)[O-])c5nonc45)ncnc32)[C@H](O)[C@@H]1O",
    "system": "Adenosine receptor A1 (Homo sapiens)",
    "pKi": 5.19
  }
]

Problem: Could you tell me which pKi is on file for CCNC(=O)[C@H]1O[C@@H](n2cnc3c(NCCCCCCCCNc4ccc([N+](=O)[O-])c5nonc45)ncnc32)[C@H](O)[C@@H]1O ?
Solution: 5.45

----------
# system: Adenosine receptor A3 (Homo sapiens)
# protocol description: biochemical
# Description: Displacement of [125I]I-AB-MECA from human adenosine A3 receptor expressed in CHO cells after 90 mins by gamma counting analysis
observable: pKi
Reminder that pKi is minus the log10 of a molar concentration.

Problem: Could you tell me which pKi is on file for CC[C@@H]1CN2C(=O)N(C)c3nc(-c4cc(Cl)cc(Cl)c4Cl)[nH]c3C2=N1 ?
Solution: 9.36

----------
# system: Adenosine receptor A1 (Bos taurus, UniProt P28190)
# Sequence (P28190 whole entry): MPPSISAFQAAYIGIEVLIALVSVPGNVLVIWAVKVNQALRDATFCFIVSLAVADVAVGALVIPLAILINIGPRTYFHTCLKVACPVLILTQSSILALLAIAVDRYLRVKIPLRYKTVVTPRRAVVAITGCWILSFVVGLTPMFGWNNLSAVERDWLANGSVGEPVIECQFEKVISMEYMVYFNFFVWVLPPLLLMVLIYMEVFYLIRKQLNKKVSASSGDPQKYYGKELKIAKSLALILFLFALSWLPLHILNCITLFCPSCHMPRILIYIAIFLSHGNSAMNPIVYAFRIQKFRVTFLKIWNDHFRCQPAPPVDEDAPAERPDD
// reported Ki for each item listed
The response must be a number in nM with no trailing unit.

Worked examples follow.
[
  {
    "compound": "O=C1C=CC2C(=C1)Oc1cc(O)ccc1C2c1ccc(NC(=S)NCCNC(=O)Cc2ccc(NC(=O)Cc3ccc(Nc4ncnc5c4ncn5[C@@H]4O[C@H](CO)[C@@H](O)[C@H]4O)cc3)cc2)cc1C(=O)O (stereo partly drawn)",
    "system": "Adenosine receptor A1 (Bos taurus, UniProt P28190)",
    "unit descriptor": "nM",
    "Ki": 2.88
  },
  {
    "compound": "CCCN1C(=O)C2NC(c3ccc(OCC(=O)NCCNC(=O)NCC(=O)NCC(=O)NCC(=S)c4ccc(C5c6ccc(O)cc6OC6=CC(=O)C=CC65)c(C(=O)O)c4)cc3)=NC2N(CCC)C1=O (stereo not drawn)",
    "system": "Adenosine receptor A1 (Bos taurus, UniProt P28190)",
    "unit descriptor": "nM",
    "Ki": 17
  }
]

Okay, now this compound:
Problem: Record lookup: for Adenosine receptor A1 (Bos taurus, UniProt P28190), what Ki belongs to O=C(Cc1ccc(NC(=O)Cc2ccc(Nc3ncnc4c3ncn4[C@@H]3O[C@H](CO)[C@@H](O)[C@H]3O)cc2)cc1)NCCNc1ccc([N+](=O)[O-])c2nonc12 ?
Solution: 1.62
